assaySummary: NCI Yeast Anticancer Drug Screen. Data for the mlh1 rad18 strain (AID 175)
assayConditions: S. cerevisiae mlh1 rad18 strain growth inhibition; at 50.0 µM; stronger effect = higher value
The panel holds about 79,000 compounds, 15% with a hit somewhere; the sample as a whole holds those more often.
reportedEndpoint: growth inhibition (%)
Field format: number, assumed %, no unit text.

O=C(O)C(F)(F)C(F)(F)C(F)(F)C(F)(F)C(=O)O; -22.8
O=C(CCCC(=O)N/N=C/c1cc(Cl)ccc1[N+](=O)[O-])N/N=C\c1cc(Cl)ccc1[N+](=O)[O-]; 7
c1ccc2c(c1)cnc1c3ccccc3ccc21; -0.5

Give the reported growth inhibition for this molecule. Oc1c2c(c3cccc4cccc1c43)=Nc1ccccc1S2
7.1

Give the reported growth inhibition for this molecule. CCCCCCn1c(=O)c(N(C)C)c(C)n(C)c1=O
-23.4

Give the reported growth inhibition for this molecule. O=C(c1ccccc1)C1CCC(C(=O)c2ccccc2)C1=O (centres undefined)
-17.2

---

assaySummary: NCI Yeast Anticancer Drug Screen. Data for the mec2-1 strain (AID 157)
assayConditions: S. cerevisiae mec2-1 strain, at 50.0 µM
The panel holds about 79,000 compounds, 15% with a hit somewhere; the sample as a whole holds those more often. Calls of active or inactive are those of the source. Rule as the data show it: active = growth inhibition above about 70%; inactive = the rest.
Classes to choose from: t (active), f (inactive)

COc1cc(C[S+]2CCCC2)c(SC)cc1C[S+]1CCCC1; f
CCOC(=O)c1ccc(NC(=O)SCCC(=O)O)cc1; f
CC(C)(O)C#Cc1ccccc1; f
C=C1C(=O)[C@@]23CC[C@@H]4[C@@]5(C)CCC[C@@]4(OC5=O)[C@@]2(C)CC[C@@H]1C3; t
COc1cccc(N2CCN(CC(O)COc3ccc(N)cc3)CC2)c1 (stereo unspecified); f

Test call, this compound: CCCCc1ccc(N=Nc2ccccc2)cc1
f

Test call, this compound: C=CS(=O)(=O)c1ccc(Nc2cc(S(=O)(=O)O)c(N)c3c2C(=O)c2ccccc2C3=O)cc1
f

Test call, this compound: CCOC(=O)C(=O)N1Cc2cc3c(cc2C2CC(O)C(O)CC21)OCO3 (stereo unspecified)
f

Test call, this compound: Cc1cc(C)c(NC(=O)Nc2ccccc2F)cc1C
f

Test call, this compound: Cn1cnc([N+](=O)[O-])c1Sc1ccccc1C(=O)O
f

Test call, this compound: COc1ccc(CCN2C(=O)C(=O)N(c3ccc(Cl)c(Cl)c3)C2=O)cc1OC
f

---

Here the recorded growth inhibition is given for each entry.
assaySummary: NCI Yeast Anticancer Drug Screen. Data for the bub3 strain (AID 167)
assayConditions: S. cerevisiae bub3 mutant strain, at 50.0 µM, stronger effect = higher value
This is part of a sample that, as a whole, favours compounds with a hit. Of some 79,000 tested, about 15% had one in any assay.
Field format: number, assumed %, no unit text.

The examples below pair each entry with its known result.
c1ccc(C(c2ccccc2)c2cc(-c3cc(C(c4ccccc4)c4ccccc4)[nH]n3)n[nH]2)cc1; -11.6
CC(=O)N(C)CCc1c[nH]c2ccccc12; 9.85
Nc1ccn(CCO)c(=O)n1; -5.3
c1ccc2c(c1)N=C(c1cccc3ccccc13)CC(c1cccc3ccccc13)S2 (configuration not stated); -18.9
CC(C)CC(=O)CC(=O)C(C)(C)C.CC(C)CC(=O)CC(=O)C(C)(C)C.CC(C)CC(=O)CC(=O)C(C)(C)C.CC(C)CC(=O)CC(=O)C(C)(C)C.[Ce]; 2.6

Give the reported growth inhibition for this compound. CC(C)CCc1n[nH]c(=O)n1/N=C\c1ccccc1
19.1

Give the reported growth inhibition for this compound. CNC(=O)OCc1nc(SSC(C)(C)C)n(C)c1COC(=O)NC
16.2

Give the reported growth inhibition for this compound. Nc1cccc(C(F)(F)F)c1
18.4

Cited source for all entries: PubChem BioAssay (NCI)
